Target: 5HT2A receptor (Homo sapiens, UniProt P28223)
Sequence (P28223 whole entry): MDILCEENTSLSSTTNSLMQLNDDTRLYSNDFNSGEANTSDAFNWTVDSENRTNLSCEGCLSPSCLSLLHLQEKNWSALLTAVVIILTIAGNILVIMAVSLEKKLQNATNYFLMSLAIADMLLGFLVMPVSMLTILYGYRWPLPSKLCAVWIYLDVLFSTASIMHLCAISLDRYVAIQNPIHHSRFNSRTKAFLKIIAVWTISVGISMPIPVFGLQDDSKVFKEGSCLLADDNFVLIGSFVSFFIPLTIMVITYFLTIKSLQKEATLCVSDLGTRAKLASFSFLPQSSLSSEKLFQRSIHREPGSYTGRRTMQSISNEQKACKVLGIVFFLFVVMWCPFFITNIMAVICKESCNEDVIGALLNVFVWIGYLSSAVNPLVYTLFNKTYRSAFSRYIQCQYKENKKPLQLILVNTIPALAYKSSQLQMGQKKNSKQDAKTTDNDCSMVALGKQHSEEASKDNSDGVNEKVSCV
Test: biochemical
Type: binding
Parameters: expressed in transfected cells; crude membranes
Conditions: 5HT2A Ki (nM), secondary binding assay, Cheng-Prusoff
readout: log10 of Ki (log10 of the value in nM)

# compound, target.or.system, log10 of Ki
records = [
    ("Fc1cc(Cl)c2[nH]nc(C34CNCC3C4)c2c1 (stereo not shown) [Example 185]", "5HT2A receptor (Homo sapiens, UniProt P28223)", 3.83),
    ("Clc1cccc2c(C3=CC4CCC3NC4)n[nH]c12 (stereo not shown) [Example 223]", "5HT2A receptor (Homo sapiens, UniProt P28223)", 3.28),
    ("CN1CC=C(c2n[nH]c3c(Cl)cccc23)CC1 [Example 239]", "5HT2A receptor (Homo sapiens, UniProt P28223)", 2.78),
    ("OCCN1CCC=C(c2n[nH]c3c(Cl)cccc23)C1 [Example 168]", "5HT2A receptor (Homo sapiens, UniProt P28223)", 3.94),
    ("CN1CC(c2c[nH]c3c(F)cccc23)C1 [Example 260]", "5HT2A receptor (Homo sapiens, UniProt P28223)", 2.55),
    ("CCCN1CCC=C(c2c[nH]c3c(Cl)c(F)ccc23)C1 [Example 160]", "5HT2A receptor (Homo sapiens, UniProt P28223)", 2.18),
    ("Clc1cccc2c(C3CN4CCC3CC4)c[nH]c12 (stereo not shown) [Example 251, 3-(7-chloro-1H-indol-3-yl)quinuclidine]", "5HT2A receptor (Homo sapiens, UniProt P28223)", 3.04),
    ("COC1(c2c[nH]c3c(Cl)cccc23)CNC1 [Example 254]", "5HT2A receptor (Homo sapiens, UniProt P28223)", 3.03),
    ("[2H]C([2H])([2H])N1CCC=C(c2n[nH]c3c(Cl)cccc23)C1 [Example 150]", "5HT2A receptor (Homo sapiens, UniProt P28223)", 2.93),
    ("CN1CCN(c2n[nH]c3c(C#N)cccc23)CC1 [Example 233]", "5HT2A receptor (Homo sapiens, UniProt P28223)", 3.68),
    ("CCCN1CCOC(c2c[nH]c3c(Cl)cccc23)C1 (stereo not shown) [Example 247]", "5HT2A receptor (Homo sapiens, UniProt P28223)", 3.41),
    ("Fc1cc(Cl)c2[nH]nc(C34CNCCC3C4(F)F)c2c1 (stereo not shown) [Example 191]", "5HT2A receptor (Homo sapiens, UniProt P28223)", 3.48),
    ("Clc1cccc2c(C3=CCCN(C4CCC4)C3)n[nH]c12 [Example 174]", "5HT2A receptor (Homo sapiens, UniProt P28223)", 3.99),
    ("CCC(C)N1CCC=C(c2n[nH]c3c(Cl)cccc23)C1 (stereo not shown) [Example 167]", "5HT2A receptor (Homo sapiens, UniProt P28223)", 2.72),
    ("CC(C)N1CC=C(c2n[nH]c3c(Cl)cccc23)C1 [Example 219]", "5HT2A receptor (Homo sapiens, UniProt P28223)", 2.50),
    ("Clc1cccc2c(C3=CCNC3)c[nH]c12 [Example 209]", "5HT2A receptor (Homo sapiens, UniProt P28223)", 2.20),
    ("CCCc1cccc2c(C3CCCN(C)C3)c[nH]c12 (stereo not shown) [Example 235]", "5HT2A receptor (Homo sapiens, UniProt P28223)", 3.74),
    ("Fc1cccc2c(C34CNCCC3C4(F)F)n[nH]c12 (stereo not shown) [Example 190]", "5HT2A receptor (Homo sapiens, UniProt P28223)", 3.73),
    ("Clc1cccc2c(C34CCNCC3C4)n[nH]c12 (stereo not shown) [Example 228]", "5HT2A receptor (Homo sapiens, UniProt P28223)", 3.72),
    ("Cc1cc(F)cc2c(C34CNCC3C4)c[nH]c12 (stereo not shown) [Example 282]", "5HT2A receptor (Homo sapiens, UniProt P28223)", 2.41),
    ("Clc1cccc2c(C3=CCNCC3)n[nH]c12 [Example 241]", "5HT2A receptor (Homo sapiens, UniProt P28223)", 2.58),
    ("Cc1cccc2c(N3CCNCC3)n[nH]c12 [Example 230, 7-methyl-3-(piperazin-1-yl)-1H-indazole]", "5HT2A receptor (Homo sapiens, UniProt P28223)", 2.85),
    ("Cc1cccc2c(N3CCN(C)CC3)n[nH]c12 [Example 234]", "5HT2A receptor (Homo sapiens, UniProt P28223)", 2.41),
    ("N#Cc1cccc2c(C34CNCC3C4)n[nH]c12 (stereo not shown) [Example 184]", "5HT2A receptor (Homo sapiens, UniProt P28223)", 3.75),
    ("CCCc1cccc2c(C3=CCCNC3)n[nH]c12 [Example 236]", "5HT2A receptor (Homo sapiens, UniProt P28223)", 2.47),
    ("CCN1CCC=C(c2n[nH]c3c(Cl)cccc23)C1 [Example 145]", "5HT2A receptor (Homo sapiens, UniProt P28223)", 2.09),
    ("Cc1cccc2c(C3=CCNCCC3)n[nH]c12 [Example 204]", "5HT2A receptor (Homo sapiens, UniProt P28223)", 2.20),
    ("CN1CCC=C(c2c[nH]c3nc(F)ccc23)C1 [Example 134]", "5HT2A receptor (Homo sapiens, UniProt P28223)", 2.45),
    ("CCCN1CCC=C(c2c[nH]c3ccncc23)C1 [Example 144]", "5HT2A receptor (Homo sapiens, UniProt P28223)", 3.92),
    ("Fc1cccc2c(C34CCNCC3C4)n[nH]c12 (stereo not shown) [Example 229]", "5HT2A receptor (Homo sapiens, UniProt P28223)", 3.28),
    ("Clc1cccc2c(C3=CCCN(CC4CC4)C3)n[nH]c12 [Example 151]", "5HT2A receptor (Homo sapiens, UniProt P28223)", 2.30),
    ("CCCN1CCC=C(c2c[nH]c3c(C#N)cccc23)C1 [Example 157]", "5HT2A receptor (Homo sapiens, UniProt P28223)", 2.21),
]
